experiment: DRUGMATRIX: Sodium/nucleoside co-transporter radioligand binding (ligand: nitrobenzylthioinosine); assay type: cell membranes, Cavia porcellus, Dunkin-Hartley, Cerebral cortex, Membrane; details: Not Active = under 50% inhibition at 10 µM
experimental-endpoint: Ki

Look over these answered cases.
compound: C[n+]1ccccc1/C=N/O.[Cl-] [PRALIDOXIME CHLORIDE]
value: Not Active
//
compound: CC(C)NCC(O)c1ccc(O)c(O)c1 (configuration not stated) [ISOPROTERENOL]
value: Not Active
//
compound: CCCCOc1cc(CC2CNC(=O)N2)ccc1OC (configuration not stated) [RO-201724]
value: Not Active
//
compound: O=C(c1ccccc1C(F)(F)F)N1CCC(Cc2ccccc2)CC1
value: Not Active
//
compound: O=C/C=C/c1ccccc1
value: Not Active

Ki recorded for this compound, Cc1nnc2n1-c1ccc(Cl)cc1C(c1ccccc1)=NC2 [ALPRAZOLAM] , is Not Active

Measured Ki, Nc1ccc2c3c(cccc13)C(=O)NC2=O : Not Active

Looking up CN(C)CC[C@@H](c1ccc(Cl)cc1)c1ccccn1 [DEXCHLORPHENIRAMINE] , I found its Ki recorded as Not Active

Field Ki (entry COc1c2occc2cc2ccc(=O)oc12 [METHOXSALEN] ) reads Not Active

Looking up COc1cc2nc(N3CCN(C(=O)C4CCCO4)CC3)nc(N)c2cc1OC (configuration not stated) [TERAZOSIN] , I see its Ki listed as Not Active

Form: compound = CC(C)NCC(O)c1ccc(NS(C)(=O)=O)cc1 (configuration not stated) [SOTALOL] ; Ki = Not Active

Entry C[C@@H]1C[C@H]2[C@@H]3CCC4=CC(=O)C=C[C@]4(C)[C@@]3(F)[C@@H](O)C[C@]2(C)[C@H]1C(=O)CO [DESOXIMETASONE] ; Ki = Not Active

Ki in this record for CO[C@@H]1[C@@H](OC)[C@H](C)[C@@](O)(CC(=O)O)O[C@H]1[C@H](C)[C@H]1O[C@@]2(CC[C@@](C)([C@H]3CC[C@@](C)([C@@H]4O[C@@H]([C@H]5O[C@](C)(O)[C@H](C)C[C@@H]5C)C[C@@H]4O[C@@H]4C[C@H](OC)[C@@H](OC)[C@H](C)O4)O3)O2)C[C@H](O)[C@H]1C [MADURAMICIN ACID] : Not Active

The compound listed as CC[C@@H](C(=O)[C@@H](C)[C@@H](O)[C@H](C)[C@@H]1O[C@@H]([C@@H](CC)C(=O)O)CC[C@@H]1C)[C@H]1O[C@]2(C=C[C@@H](O)[C@]3(CC[C@@](C)([C@H]4CC[C@](O)(CC)[C@H](C)O4)O3)O2)[C@H](C)C[C@@H]1C [SALINOMYCIN] has a reported Ki of Not Active

response.value for CCn1cc(C(=O)O)c(=O)c2cnc(N3CCCC3)nc21 [PIROMIDIC ACID] (field: Ki) = Not Active

For record CS(=O)(=O)c1ccc([C@@H](O)[C@@H](CO)NC(=O)C(Cl)Cl)cc1 [THIAMPHENICOL] the listed Ki is Not Active

The reported Ki of the compound CCN1CCC[C@H]1CNC(=O)c1cc(S(N)(=O)=O)ccc1OC [LEVOSULPIRIDE] was Not Active

* * *

test: DRUGMATRIX: Phosphodiesterase PDE3 enzyme inhibition (substrate: [3H]cAMP + cAMP); format: tissue-based, Homo sapiens; details: platelet; Not Active = under 50% inhibition at 10 µM
experimental-endpoint: IC50

molecule: COc1ccc2c3c1O[C@H]1C[C@@H](O)C=C[C@@]31CCN(C)C2 [GALANTAMINE]
IC50: Not Active
--
molecule: C[n+]1ccc(-c2cc[n+](C)cc2)cc1.[Cl-].[Cl-] [PARAQUAT DICHLORIDE]
IC50: Not Active
--
molecule: CC(C(=O)O)c1ccc2oc(-c3ccc(Cl)cc3)nc2c1 (stereo not given) [BENOXAPROFEN]
IC50: Not Active
--
molecule: O=C(c1ccccc1C(F)(F)F)N1CCC(Cc2ccccc2)CC1
IC50: Not Active
--
molecule: COc1ccc(C(=O)N2CCCC2=O)cc1
IC50: Not Active
--
molecule: CC(C(=O)O)c1cccc(Oc2ccccc2)c1 (stereo not given) [FENOPROFEN]
IC50: Not Active
--
molecule: CCN(CC)CCOCCC1=CCC2CC1C2(C)C (stereo not given) [MYRTECAINE]
IC50: Not Active
--
molecule: COC(=O)Nc1nc2ccc(C(=O)c3cccs3)cc2[nH]1 [NOCODAZOLE]
IC50: Not Active

Consider COc1cc(N)c(Cl)cc1C(=O)NC1CCN(CCCOc2ccc(F)cc2)CC1OC (stereo not given) [CISAPRIDE] . Its measured IC50 is Not Active

The molecule listed as Cn1c(=O)c2c(ncn2CC(O)CO)n(C)c1=O (stereo not given) [DYPHYLLINE] has a reported IC50 of Not Active

* * *

molecular target: UniProtKB P35462; assay: DRUGMATRIX: Dopamine D3 radioligand binding (ligand: [3H] Spiperone); assay type: cell membranes, CHO, Membrane; conditions: read-out: IC50
Sequence (P35462 whole entry): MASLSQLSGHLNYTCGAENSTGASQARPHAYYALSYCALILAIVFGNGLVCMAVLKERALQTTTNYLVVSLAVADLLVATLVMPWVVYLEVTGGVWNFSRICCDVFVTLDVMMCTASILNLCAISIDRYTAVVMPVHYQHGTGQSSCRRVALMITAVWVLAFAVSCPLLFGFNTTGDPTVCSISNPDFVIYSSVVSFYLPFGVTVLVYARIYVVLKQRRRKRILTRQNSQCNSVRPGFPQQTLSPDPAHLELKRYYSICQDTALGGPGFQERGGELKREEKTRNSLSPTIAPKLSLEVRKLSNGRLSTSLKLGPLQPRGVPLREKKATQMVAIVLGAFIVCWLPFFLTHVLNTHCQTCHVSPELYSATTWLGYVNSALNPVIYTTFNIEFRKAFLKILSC
Overview of reported pIC50 across a group of compounds:
Please express pIC50 as -log10 of the molar concentration.

Record excerpt, results attached:
compound: OC(CCCN1CCCCC1)(c1ccccc1)c1ccccc1
value: 5.64
//
compound: COc1cc(N)c(Cl)cc1C(=O)NC1CCN(CCCOc2ccc(F)cc2)CC1OC (configuration not stated) [CISAPRIDE]
value: 6.84
//
compound: C[C@@H](CO)NC(=O)[C@@H]1C=C2c3cccc4[nH]cc(c34)C[C@H]2N(C)C1
value: 6.25

API: the following record is the query input.
Given item Cc1c(C)c2c(c(C)c1O)CCC(C)(CN1CCN(c3cc(N4CCCC4)nc(N4CCCC4)n3)CC1)O2 (configuration not stated) , the value recorded as its pIC50 is 5.28

* * *

assay: DRUGMATRIX: Interleukin IL-1 radioligand binding (ligand: [125I] interleukin 1beta); type: cell membranes, Membrane; settings: nih3t3; Not Active = under 50% inhibition at 10 µM
experimental-endpoint: IC50

Example entries and their recorded answers appear below.
compound: O=C(Oc1ccccc1C(=O)O)c1ccccc1O [SALSALATE]
experimental-endpoint: IC50
value: Not Active
--
compound: CCC1(C)CC(=O)NC1=O (stereo not drawn) [ETHOSUXIMIDE]
experimental-endpoint: IC50
value: Not Active
--
compound: COc1cc([C@@H]2c3cc4c(cc3[C@@H](O[C@@H]3O[C@@H]5CO[C@@H](C)O[C@H]5[C@H](O)[C@H]3O)[C@H]3COC(=O)[C@H]23)OCO4)cc(OC)c1O [ETOPOSIDE]
experimental-endpoint: IC50
value: Not Active
--
compound: CN(C)CC[C@@H](c1ccc(Cl)cc1)c1ccccn1
experimental-endpoint: IC50
value: Not Active
--
compound: NCCCC(O)(P(=O)(O)O)P(=O)(O)O
experimental-endpoint: IC50
value: Not Active

// CCN(CC)CCNC(=O)c1cc(S(C)(=O)=O)ccc1OC [TIAPRIDE] : IC50 value = Not Active

Just so you know, measured IC50 for C[C@H]1O[C@@H](n2cc(F)c(=O)[nH]c2=O)[C@H](O)[C@@H]1O came out at Not Active

Entry O=C1C(CC[S+]([O-])c2ccccc2)C(=O)N(c2ccccc2)N1c1ccccc1 (stereo not drawn) — recorded IC50 = Not Active

* * *

assay: DRUGMATRIX: Imidazoline I2, Central radioligand binding (ligand: [3H] Idazoxan); format: cell membranes, Rattus norvegicus, Wistar, Cerebral cortex, Membrane; conditions: Not Active = under 50% inhibition at 10 µM
experimental-endpoint: IC50

Answered cases to consult:
molecule: O=C(O)c1cccnc1Nc1cccc(C(F)(F)F)c1 [NIFLUMIC ACID]
experimental-endpoint: IC50
value: Not Active
//
molecule: COc1cc(N)c(Cl)cc1C(=O)NC1CCN(CCCOc2ccc(F)cc2)CC1OC (stereo not drawn) [CISAPRIDE]
experimental-endpoint: IC50
value: Not Active
//
molecule: O=C(Nc1ccc(Br)cc1)c1cc(Br)cc(Br)c1O [TRIBROMSALAN]
experimental-endpoint: IC50
value: Not Active
//
molecule: COc1ccc(C(=O)N2CCCC2=O)cc1
experimental-endpoint: IC50
value: Not Active

// sample C[C@@H]1C[C@H]2[C@@H]3CCC4=CC(=O)C=C[C@]4(C)[C@@]3(F)[C@@H](O)C[C@]2(C)[C@H]1C(=O)CO [DESOXIMETASONE] , its IC50 was Not Active

IC50 for CCC(=O)O[C@]1(C(=O)CCl)[C@@H](C)C[C@H]2[C@@H]3CCC4=CC(=O)C=C[C@]4(C)[C@@]3(F)[C@@H](O)C[C@@]21C [CLOBETASOL PROPIONATE] is Not Active

Record summary for COc1c2occc2cc2ccc(=O)oc12 [METHOXSALEN] : reported IC50 = Not Active

Per the record, Nc1cc(N2CCCCC2)nc(N)[n+]1[O-] [MINOXIDIL] has IC50 of Not Active

IC50 for CCCNCC(O)COc1ccccc1C(=O)CCc1ccccc1 (stereo not drawn) [PROPAFENONE] is Not Active

# IC50 of CC(C)NCC(O)c1ccc(NS(C)(=O)=O)cc1 (stereo not drawn) [SOTALOL] = Not Active

Sample CC(C)Oc1ccc2c(=O)c(-c3ccccc3)coc2c1 [IPRIFLAVONE] ; IC50 observed: Not Active

Notebook: O=C1Nc2ccc(Cl)cc2C(c2ccccc2Cl)=NC1O (stereo not drawn) [LORAZEPAM] , IC50 read as Not Active

Reported IC50 of Cc1c(OCC(F)(F)F)ccnc1C[S+]([O-])c1nc2ccccc2[nH]1 (stereo not drawn) [LANSOPRAZOLE] : Not Active

Reported IC50 of Cn1c(=O)c2c(ncn2CC(O)CO)n(C)c1=O (stereo not drawn) [DYPHYLLINE] : Not Active

Note to self: IC50 recorded for CC(C)(C)NC(=O)[C@H]1CC[C@H]2[C@@H]3CC[C@H]4NC(=O)C=C[C@]4(C)[C@H]3CC[C@]12C [FINASTERIDE] was Not Active

For O=C(c1ccccc1C(F)(F)F)N1CCC(Cc2ccccc2)CC1 the molecule record lists IC50 as Not Active

Data point: NNc1nncc2ccccc12 [HYDRALAZINE] ; IC50 = Not Active
